Data provenance is patent US20250313553A1.

target: KRAS (G12V) and SOS1 (Homo sapiens, UniProt P01116, C118S/G12V)
Construct: KRAS (G12V) 1-169, N-terminal 6His-tag for purification; 6His (N, cleaved yes); TEV cleavage site
Sequence (P01116 1-169 isoform P01116-2 G12V/C118S): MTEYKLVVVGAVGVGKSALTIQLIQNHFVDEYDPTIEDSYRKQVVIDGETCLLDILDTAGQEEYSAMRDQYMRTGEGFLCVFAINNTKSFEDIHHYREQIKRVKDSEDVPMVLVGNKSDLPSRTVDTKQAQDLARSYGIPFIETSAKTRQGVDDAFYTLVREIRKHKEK
experimentSummary: KRAS::SOS1 AlphaScreen binding assay, KRAS G12V
pIC50: −log10 of the molar value.
valueKind: pIC50

>>> print(df.to_string())
                                     smiles  observed
0  C[C@H](Oc1cccc(-c2noc([C@@]3(C)CCCc4sc(N)c(C#N)c43)n2)n1)[C@@H]1CCCN1C      8.05
1  C[C@H]1CN(C)CCN1c1nccc(-c2cc([C@@]3(C)CCCc4sc(N)c(C#N)c43)on2)n1      7.74
2  C[C@H]1CN(CC2CC2)CCCN1c1nccc(-c2noc([C@@]3(C)CCCc4sc(N)c(C#N)c43)n2)n1      8.30
3  COCCCN1CCCN(c2nccc(-c3noc([C@@]4(C)CCCc5sc(N)c(C#N)c54)n3)n2)[C@@H](C)C1      8.22
4  C[C@H]1CN(C)CCN1c1cccc(-c2noc([C@@]3(C)CCCc4sc(N)c(C#N)c43)n2)n1      7.28
5  C[C@H](Oc1ccnc(-c2cc([C@@]3(C)CCCc4sc(N)c(C#N)c43)no2)n1)[C@@H]1CCCN1C      7.96
